Measured target: ITK (Homo sapiens)
Sequence (Q08881 whole entry): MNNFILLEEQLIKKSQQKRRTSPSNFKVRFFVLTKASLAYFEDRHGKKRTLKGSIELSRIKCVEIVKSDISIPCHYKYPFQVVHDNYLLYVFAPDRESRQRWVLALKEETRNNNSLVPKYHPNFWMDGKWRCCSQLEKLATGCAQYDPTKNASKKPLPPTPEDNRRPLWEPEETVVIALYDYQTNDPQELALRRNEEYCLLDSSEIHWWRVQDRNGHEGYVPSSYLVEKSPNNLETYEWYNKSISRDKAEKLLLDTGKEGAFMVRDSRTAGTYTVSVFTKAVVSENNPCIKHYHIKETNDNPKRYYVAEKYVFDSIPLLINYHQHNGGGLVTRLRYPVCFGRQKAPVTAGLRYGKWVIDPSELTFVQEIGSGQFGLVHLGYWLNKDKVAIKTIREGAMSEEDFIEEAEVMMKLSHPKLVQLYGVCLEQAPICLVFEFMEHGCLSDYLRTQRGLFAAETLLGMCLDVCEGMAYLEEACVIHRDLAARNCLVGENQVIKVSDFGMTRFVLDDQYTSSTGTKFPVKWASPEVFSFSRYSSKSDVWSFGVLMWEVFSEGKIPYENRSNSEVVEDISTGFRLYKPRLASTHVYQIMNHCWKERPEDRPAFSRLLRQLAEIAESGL
Test method notes: ITK degradation HiBiT assay
Type: cell-based
Design: expressed in transfected cells; host or cells: Molt4 (ATCC CRL-1552), monoclonal clone 1C10, engineered to carry the HiBiT tag
Condition description: MOLT-4, C-terminal HiBiT-tagged Molt4 cells, 4 hrs
What Dmax was measured for each of the following?
Provide only the numeric value, understood in %.

Incoming: # query: Dmax of entry CC1(C)CCc2c(-c3cc4ccc(N5CCC6(CCN(Cc7ccc8c(c7)C(=O)N(C7CCC(=O)NC7=O)C8=O)CC6)C5=O)cc4[nH]3)n[nH]c2C1 (centres unmarked) [Compound 8]
Outgoing: 92

Incoming: # query: Dmax of entry CC1(C)CCc2c(-c3cc4ccc(C(=O)N5CCN(CC6CCN(c7ccc8c(c7)CN(C7CCC(=O)NC7=O)C8=O)CC6)CC5)cc4[nH]3)n[nH]c2C1 (centres unmarked) [Compound 26]
Outgoing: 88

Incoming: # query: Dmax of entry C[C@@]12Cc3[nH]nc(C(=O)Nc4cnn(CC5CCN(CC6CCN(C(=O)c7ccc(F)c(N8CCC(=O)NC8=O)c7)CC6)CC5)c4)c3C[C@@H]1C2(F)F [Compound 204]
Outgoing: 70

Incoming: # query: Dmax of entry C[C@@]12Cc3[nH]nc(-c4cc5cc(F)c(C(=O)N6CCN(CC7CCN(c8ccc([C@H]9CCC(=O)NC9=O)cc8)CC7)CC6)cc5[nH]4)c3C[C@@H]1C2(F)F (single isomer, unassigned) [Compound 220]
Outgoing: 89

Incoming: # query: Dmax of entry CN(C(=O)CCC1CCN(c2ccc(C(=O)NC3CCC(=O)NC3=O)nc2)C1)c1ccc2cc(-c3n[nH]c4c3C[C@@H]3C(F)(F)[C@]3(C)C4)[nH]c2c1 (some centres unmarked) [Compound 69]
Outgoing: 42

Incoming: # query: Dmax of entry CC1(C)CCc2c(-c3cc4ccc(N5CCC6(CCN(CC7CCN(c8ccc(C9CCC(=O)NC9=O)cn8)CC7)CC6)C5=O)cc4[nH]3)n[nH]c2C1 (centres unmarked) [Compound 22]
Outgoing: 82

Incoming: # query: Dmax of entry C[C@@]12Cc3[nH]nc(-c4cc5cc(F)c(C(=O)N6CCN(CC7CCN(c8ccc(C9CCC(=O)NC9=O)cc8)CC7)CC6)cc5[nH]4)c3C[C@@H]1C2(F)F (some centres unmarked) [Compound 138]
Outgoing: 83

Incoming: # query: Dmax of entry C[C@H]1CN(CC2CCN(c3ccc(C4CCC(=O)NC4=O)cn3)CC2)CCN1C(=O)c1ccc2cc(-c3n[nH]c4c3CCC(C)(C)C4)[nH]c2c1 (some centres unmarked) [Compound 130]
Outgoing: 85

Incoming: # query: Dmax of entry CC1(C)CCc2c(-c3cc4ccc(C(=O)N5CCN(CCC6CCN(c7cc(C8CCC(=O)NC8=O)ccn7)CC6)CC5)cc4[nH]3)n[nH]c2C1 (centres unmarked) [Compound 186]
Outgoing: 87

Incoming: # query: Dmax of entry CN(C(=O)CC[C@H]1CCN(c2ccc3c(c2)C(=O)N(C2CCC(=O)NC2=O)C3=O)C1)c1ccc2cc(-c3n[nH]c4c3C[C@@H]3C(F)(F)[C@]3(C)C4)[nH]c2c1 (stereo in doubt) [Compound 67]
Outgoing: 75

Incoming: # query: Dmax of entry CC1(C)CCc2c(-c3cc4ccc(C(=O)N5CCN(CC6CCN(c7ccc(C8CCC(=O)NC8=O)cn7)CC6)C(C)(C)C5)cc4[nH]3)n[nH]c2C1 (centres unmarked) [Compound 133]
Outgoing: 86
